Please respond with reported pEC50 for every item in the list.
Molecular target: bFFAR2 (bovine FFAR2/GPR43) (Bos taurus, UniProt A0ACM8QIU6)
Construct: full-length synthetic cDNA, N-terminal FLAG tag; transiently expressed in HEK293A cells
Sequence (A0ACM8QIU6 1-329): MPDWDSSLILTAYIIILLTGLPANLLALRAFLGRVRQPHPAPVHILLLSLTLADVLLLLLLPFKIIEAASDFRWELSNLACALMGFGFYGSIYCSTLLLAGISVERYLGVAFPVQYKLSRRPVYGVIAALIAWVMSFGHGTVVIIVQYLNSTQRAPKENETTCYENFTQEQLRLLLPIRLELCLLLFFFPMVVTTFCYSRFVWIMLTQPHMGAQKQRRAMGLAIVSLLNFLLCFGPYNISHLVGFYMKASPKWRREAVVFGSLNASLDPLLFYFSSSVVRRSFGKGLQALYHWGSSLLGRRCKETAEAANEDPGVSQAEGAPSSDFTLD
Experiment: BRET, mini-Gαi recruitment to bFFAR2-Rluc8, HEK293A
Assay type: cell-based
From the text: BRET, mini-Gαi recruitment to bFFAR2-Rluc8, HEK293A on bFFAR2 (bovine FFAR2/GPR43)
Just so you know, pEC50 here is -log10 of the concentration in molar units; reply with that number alone.

Can you share its pEC50? I mean this compound: CCC(=O)O 3.01

Can you look up the measured pEC50 of CCCCCCC(=O)O for me? 3.90

Which pEC50 value belongs to CC(C)CC(=O)O ? 4.12

So what does the record say about pEC50 for CCCCC(=O)O ? 4.21

For the compound CC(=O)O , what pEC50 is on record? 2.01

Which pEC50 value is on record for CCCCCC(=O)O ? 4.14

Quick check: pEC50 of CCCC(=O)O ? 3.89
